system: primary human pan T cells; assay: Human T-Cell IL2 Induction Assay; type: cell-based; conditions: assayed concentration 0.93 μM; anti-CD3/anti-CD28 stimulated primary human pan T cells
Give % IL-2 increase relative to untreated cells for every item shown.
Numbers only; they are read as %.

Looking up Cc1ccncc1-c1cc2cc(NC(=O)[C@H]3[C@@H](C)[C@@H]3c3cnn(C)c3)ncc2c(N)n1 (single isomer, unassigned) , I found its % IL-2 increase relative to untreated cells recorded as 936

Looking up `CNC(=O)Nc1cc2cc(-c3cnccc3C)nc(N)c2cn1` , I found its % IL-2 increase relative to untreated cells recorded as 274

Looking up `Cc1ccncc1-c1cc2cc(NC(=O)C3CC3)ncc2c(N)n1` , I found its % IL-2 increase relative to untreated cells recorded as 513

Looking up Cc1ccncc1-c1cc2cc(Nc3cnn([C@H](C)C#N)c3)ncc2c(N)n1 (single isomer, unassigned) , I found its % IL-2 increase relative to untreated cells recorded as 830

# credit: patent US11034692B1
